Attribution: patent US20100190788A1

test.target: human ROCKα/ROCKII mix (Homo sapiens, UniProt O75116)
Construct: purchased Upstate Biotechnology 14-451
Sequence (O75116 whole entry): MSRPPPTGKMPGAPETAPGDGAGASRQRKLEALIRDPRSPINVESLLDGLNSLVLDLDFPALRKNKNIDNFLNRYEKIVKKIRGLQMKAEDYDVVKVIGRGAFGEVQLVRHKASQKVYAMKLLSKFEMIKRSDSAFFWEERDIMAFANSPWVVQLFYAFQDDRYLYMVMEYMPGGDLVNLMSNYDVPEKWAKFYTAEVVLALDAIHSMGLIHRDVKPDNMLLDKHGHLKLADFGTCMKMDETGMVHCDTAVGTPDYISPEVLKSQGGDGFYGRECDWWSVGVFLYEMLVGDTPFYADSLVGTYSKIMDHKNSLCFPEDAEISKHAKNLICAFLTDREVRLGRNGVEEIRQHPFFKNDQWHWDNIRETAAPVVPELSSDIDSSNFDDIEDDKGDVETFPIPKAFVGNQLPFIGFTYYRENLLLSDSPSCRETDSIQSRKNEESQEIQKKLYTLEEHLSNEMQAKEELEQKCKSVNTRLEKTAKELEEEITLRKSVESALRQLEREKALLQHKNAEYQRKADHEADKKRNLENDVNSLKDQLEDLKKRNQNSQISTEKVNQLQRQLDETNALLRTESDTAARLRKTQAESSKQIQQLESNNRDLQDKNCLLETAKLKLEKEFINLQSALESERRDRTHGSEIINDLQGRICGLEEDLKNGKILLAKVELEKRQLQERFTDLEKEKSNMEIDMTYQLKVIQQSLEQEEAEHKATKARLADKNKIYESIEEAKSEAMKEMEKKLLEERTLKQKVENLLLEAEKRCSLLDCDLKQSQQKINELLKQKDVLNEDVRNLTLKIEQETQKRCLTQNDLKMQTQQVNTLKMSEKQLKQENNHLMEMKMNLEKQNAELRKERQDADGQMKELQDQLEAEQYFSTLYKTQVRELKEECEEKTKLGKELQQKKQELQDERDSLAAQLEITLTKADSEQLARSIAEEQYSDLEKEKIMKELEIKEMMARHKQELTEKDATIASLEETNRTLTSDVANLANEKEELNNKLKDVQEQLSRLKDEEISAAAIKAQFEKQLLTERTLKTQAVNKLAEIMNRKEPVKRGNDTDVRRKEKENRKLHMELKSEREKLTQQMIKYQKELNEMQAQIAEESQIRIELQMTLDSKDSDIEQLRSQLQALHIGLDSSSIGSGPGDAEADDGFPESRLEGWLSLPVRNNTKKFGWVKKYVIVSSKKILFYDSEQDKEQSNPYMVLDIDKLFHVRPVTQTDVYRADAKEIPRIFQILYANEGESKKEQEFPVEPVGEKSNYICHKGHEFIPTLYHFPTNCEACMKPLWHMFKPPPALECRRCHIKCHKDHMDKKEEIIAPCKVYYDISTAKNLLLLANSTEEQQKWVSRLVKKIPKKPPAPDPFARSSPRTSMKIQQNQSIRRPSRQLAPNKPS
protocol.description: ROCK inhibition, fluorescence polarization (FP) assay with ROCK IMAP Kit
Format: biochemical
test.conditions: Table 2, compounds of Formula V20
assay.metric: IC50

Task: Give the measured IC50 of CCCCS(=O)(=O)NCC(N)c1ccc(C(=O)Nc2ccncc2)cc1 (stereo not drawn) .
Output: < 0.5 µM

Task: # repeat for Cc1noc(C)c1S(=O)(=O)NCC(N)c1ccc(C(=O)Nc2ccncc2)cc1 (stereo not drawn)
Output: < 0.5 µM

Task: # repeat for NC(CNS(=O)(=O)c1ccccc1)c1ccc(C(=O)Nc2ccncc2)cc1 (stereo not drawn)
Output: < 0.5 µM

Task: # repeat for NC(CNS(=O)(=O)c1ccc(Oc2ccccc2)cc1)c1ccc(C(=O)Nc2ccncc2)cc1 (stereo not drawn)
Output: 0.5 to 5 µM

Task: # repeat for NC(CNS(=O)(=O)c1cccs1)c1ccc(C(=O)Nc2ccncc2)cc1 (stereo not drawn)
Output: < 0.5 µM

Task: # repeat for NC(CNS(=O)(=O)c1cccc2nonc12)c1ccc(C(=O)Nc2ccncc2)cc1 (stereo not drawn)
Output: < 0.5 µM

Task: # repeat for COc1ccc(OC)c(S(=O)(=O)NCC(N)c2ccc(C(=O)Nc3ccncc3)cc2)c1 (stereo not drawn)
Output: < 0.5 µM

Task: # repeat for NC(CNS(=O)(=O)c1cccc(Oc2ccccc2)c1)c1ccc(C(=O)Nc2ccncc2)cc1 (stereo not drawn)
Output: 0.5 to 5 µM

Task: # repeat for COc1ccc(S(=O)(=O)NCC(N)c2ccc(C(=O)Nc3ccncc3)cc2)cc1 (stereo not drawn)
Output: < 0.5 µM
